- study_system: T1, rat PTH1R on UMR106 cells (rat, UniProt P25961 27-591)
- T1 construct: whole, on cells; also called UMR106 (Endogenous Rat PTH1R); native rat PTH1R
- T1 sequence (looked up): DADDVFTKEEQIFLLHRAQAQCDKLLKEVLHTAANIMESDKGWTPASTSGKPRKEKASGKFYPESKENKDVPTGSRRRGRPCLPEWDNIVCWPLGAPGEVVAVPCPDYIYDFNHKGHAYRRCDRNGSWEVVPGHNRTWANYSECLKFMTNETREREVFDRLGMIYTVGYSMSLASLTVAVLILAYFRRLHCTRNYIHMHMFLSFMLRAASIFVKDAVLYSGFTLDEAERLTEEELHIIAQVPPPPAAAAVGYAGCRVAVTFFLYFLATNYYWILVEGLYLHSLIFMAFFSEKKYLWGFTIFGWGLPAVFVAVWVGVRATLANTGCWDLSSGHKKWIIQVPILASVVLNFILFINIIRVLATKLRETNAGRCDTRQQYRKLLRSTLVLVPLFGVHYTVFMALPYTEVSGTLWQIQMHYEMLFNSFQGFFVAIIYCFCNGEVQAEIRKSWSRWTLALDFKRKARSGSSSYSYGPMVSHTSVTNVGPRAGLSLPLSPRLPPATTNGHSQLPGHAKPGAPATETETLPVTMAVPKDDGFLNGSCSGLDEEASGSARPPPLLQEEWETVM
- experimental_details: flow cytometry, 1 hr at 4 C
measured_parameter: binding result

>>> test_value("XPA.85.334 (antibody, V domains shown, Light-chain-shuffled variant of XPA.85.012) VH: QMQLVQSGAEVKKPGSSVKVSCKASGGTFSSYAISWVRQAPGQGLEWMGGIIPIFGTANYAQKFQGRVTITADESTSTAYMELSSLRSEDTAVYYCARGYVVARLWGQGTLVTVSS VL: DIVMTQTPLSLSVTPGQPASITCKSSQSLLHIDGKTYLYWFLQKPGQPPQLLIYEVSNRFSGVPDRFSGTGSGTDFTLKISRVEAEDVGVYYCMQSLHFPITFGPGTRLEIK")
"binds"
>>> test_value("XPA.85.333 (antibody, V domains shown, Light-chain-shuffled variant of XPA.85.012) VH: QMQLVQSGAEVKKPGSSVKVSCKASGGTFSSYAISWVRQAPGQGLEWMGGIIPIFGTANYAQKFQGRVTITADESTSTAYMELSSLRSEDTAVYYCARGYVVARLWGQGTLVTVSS VL: DVVMTQTPLSLSVTPGQPASISCKSSQSLLHIDGKAYLYWYLQKPGQSPHLLIREVSTRFSGVSDRFTGSGSGTDFTLEISRVEAEDVGVYYCMQGLHLPPTFGQGTKVEIK")
"binds"
